# Target or system: GRID2IP_2, A4D2P6
# Sequence (A4D2P6 272-370): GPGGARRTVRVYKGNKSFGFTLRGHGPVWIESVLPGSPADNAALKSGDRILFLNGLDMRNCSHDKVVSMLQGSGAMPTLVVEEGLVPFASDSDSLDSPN
# Test method notes: holdup assay
# Design: key: below the threshold = too weak to quantify, mostly under pKd 3.1 to 4
# Reported conditions: plain residues with an end cap or a label only (N-terminal biotin on a linker: ahx)
Recorded metric: pKd

Provide only the value of recorded pKd for TESNLQTSSC [CGN, Q9P2M7]
3.8

Provide only the value of recorded pKd for APSRKLNTEI [TIAM1, Q13009]
below the threshold

Provide only the value of recorded pKd for TQKFRASTAL [FRMPD1, Q5SYB0]
4.18

Provide only the value of recorded pKd for QPRTWLQSPV [RTKN, Q9BST9]
below the threshold

New cases:
Provide only the value of recorded pKd for TEAKLTETNA [MYO18A, Q92614]
below the threshold

Provide only the value of recorded pKd for EKQAKGDTEF [CACYBP, Q9HB71]
below the threshold

Provide only the value of recorded pKd for QDEKVKESYV [ABCA1, O95477]
3.97

Provide only the value of recorded pKd for QNTDDVQTSF [ACE2, Q9BYF1]
below the threshold

Provide only the value of recorded pKd for HTHSYIETHV [CNKSR2, Q8WXI2]
below the threshold
